For each record, write down the corresponding koff.
Biological target: T1, human EGFR-His antigen (human, UniProt P00533 25-645)
T1 construct: also called hEGFR-His
Assay: SPR Biacore 8K, antibody on Protein A chip, 1:1 fit
One number for each entry, in s⁻¹.

| binder | reported_property | observed_measurement |
| --- | --- | --- |
| ZalH8 (antibody, human IgG1, kappa, V domains shown, anti-EGFR zalutumumab variant, human IgG1) VH: QVQLVESGGGVVQPGRSLRLSCAASGFTFSSYGMHWVRQAPGKGLEWVAVIWDDGSYKYYGDSVKGRFTISRDNSKNTLYLQMNSLRAEDTAVYYCARDGLTMVRGVMKDYFDYWGQGTLVTVSS VL: DIQLTQSPSSLSASVGDRVTITCRASQDISSALVWYQQKPGKAPKLLIYDASSLESGVPSRFSGSESGTDFTLTISSLQPEDFATYYCQQFNSYPLTFGGGTKVEIKR | koff | 0.0369 |

For the binder shown here, ZalH2 (antibody, human IgG1, kappa, V domains shown, anti-EGFR zalutumumab variant, human IgG1) VH: QVQLVESGGGVVQPGRSLRLSCAASGFTFSTYGMHWVRQAPGKGLEWVAVIWEDGSYKYYGDSVKGRFTISRDNSKNTLYLQMNSLRAEDTAVYYCARDGITMVRGVMKDYFDYWGQGTLVTVSS VL: DIQLTQSPSSLSASVGDRVTITCRASQDISSALVWYQQKPGKAPKLLIYDASSLESGVPSRFSGSESGTDFTLTISSLQPEDFATYYCQQFNSYPLTFGGGTKVEIKR , give the reported koff.
0.00812
